# IC50 per entry
- ASSAY_TARGET: cholinesterase (ChE), susceptible strain
- TEST_DESCRIPTION: Inhibition of cholinesterase (acetylthiocholine method), susceptible strain enzyme
- Format: biochemical, green rice leafhopper, Nephotettix cincticeps
- CONDITIONS_USED: 50% inhibition concentration, 30° C. 30 min with inhibitor, read-out: Inhibition of Cholinesterase I50 (M) S
PROPERTY_LABEL: IC50

- COMPOUND: "CCCCNC(=O)Oc1ccccc1C(C)CC (stereo not shown)"
  PROPERTY_LABEL: "IC50"
  VAL: "> 0.001 M"
- COMPOUND: "CNC(=O)Oc1ccccc1 [Compound 140, reference compound]"
  PROPERTY_LABEL: "IC50"
  VAL: "0.00013 M"
- COMPOUND: "C#CCOc1cccc(OC(=O)NC)c1 [Compound 100, reference compound]"
  PROPERTY_LABEL: "IC50"
  VAL: "3.5e-05 M"
- COMPOUND: "CCNC(=O)Oc1cccc(C(C)CC)c1 (stereo not shown)"
  PROPERTY_LABEL: "IC50"
  VAL: "6.5e-06 M"
- COMPOUND: "CCNC(=O)Oc1cccc(OCC)c1"
  PROPERTY_LABEL: "IC50"
  VAL: "0.00044 M"
- COMPOUND: "CCCCNC(=O)Oc1ccc(C)c(C)c1"
  PROPERTY_LABEL: "IC50"
  VAL: "0.00056 M"
- COMPOUND: "CCCCNC(=O)Oc1cc(C)cc(C(C)C)c1"
  PROPERTY_LABEL: "IC50"
  VAL: "> 0.001 M"
- COMPOUND: "C=CCOc1ccccc1OC(=O)NC [Compound 88, reference compound]"
  PROPERTY_LABEL: "IC50"
  VAL: "7e-06 M"
- COMPOUND: "CCC(C)Oc1ccccc1OC(=O)NC (stereo not shown) [Compound 86, reference compound]"
  PROPERTY_LABEL: "IC50"
  VAL: "2.1e-06 M"
- COMPOUND: "C=CCNC(=O)Oc1cccc(C(C)(C)C)c1"
  PROPERTY_LABEL: "IC50"
  VAL: "2.6e-05 M"

###

- System: cholinesterase (ChE), resistant strain
- Assay type: biochemical, green rice leafhopper, Nephotettix cincticeps
- CONDITIONS_USED: ratio of the resistant strain to the susceptible strain (I50); 30 min
PROPERTY_LABEL: Inhibition of Cholinesterase R/S (resistant ratio)

- COMPOUND: "CCCCNC(=O)Oc1cc(C)cc(C(C)C)c1"
  VAL: "< 0.09"
- COMPOUND: "CCc1ccc(OC(=O)NC)cc1CC [Compound 50, reference compound]"
  VAL: 46.4
- COMPOUND: "CNC(=O)Oc1ccccc1OC [Compound 76, reference compound]"
  VAL: 32.3
- COMPOUND: "CCCCNC(=O)Oc1ccccc1C(C)CC (centres unmarked)"
  VAL: "< 0.1"
- COMPOUND: "CCOc1cccc(OC(=O)NC)c1 [Compound 92, reference compound]"
  VAL: 17.6

Values compiled from patent US4226883A.
